Please respond with reported Ki for every item in the list.
Target: EP4 receptors (Homo sapiens)
Construct: expressed in transfected cells; host or cells: HEK-293 (plasma membrane fraction)
Sequence (P35408 whole entry): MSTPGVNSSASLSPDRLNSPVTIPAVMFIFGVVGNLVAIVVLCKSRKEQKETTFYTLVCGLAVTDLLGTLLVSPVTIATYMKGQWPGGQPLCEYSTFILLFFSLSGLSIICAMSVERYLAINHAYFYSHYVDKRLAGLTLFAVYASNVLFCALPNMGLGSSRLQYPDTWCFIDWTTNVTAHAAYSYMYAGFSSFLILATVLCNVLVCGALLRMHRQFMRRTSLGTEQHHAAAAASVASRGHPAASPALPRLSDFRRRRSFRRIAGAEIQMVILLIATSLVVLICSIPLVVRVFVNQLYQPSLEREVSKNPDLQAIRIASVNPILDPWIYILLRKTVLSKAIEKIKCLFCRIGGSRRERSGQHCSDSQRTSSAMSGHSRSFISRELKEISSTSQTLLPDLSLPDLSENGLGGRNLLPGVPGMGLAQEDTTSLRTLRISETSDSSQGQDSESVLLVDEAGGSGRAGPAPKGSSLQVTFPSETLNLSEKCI
Experiment: Radioligand binding, [3H]PGE2, HEK-293 cells expressing EP4
Protocol: HEK-293 cells stably expressing the human or feline FP receptor, or EP1, EP2, or EP4 receptors were washed with TME buffer, scraped from the bottom of the flasks, and homogenized for 30 sec using a Brinkman PT 10/35 polytron. […] The cell homogenate was centrifuged at 19000 r.p.m. for 20 min at 4° C. using a Beckman Ti-60 rotor. The resultant pellet was resuspended in TME buffer to give a final 1 mg/ml protein concentration, as determined by Biorad assay. […]
Response body: numeric value in nM, unit text excluded.

[ask] Which measured Ki value corresponds to CCCCCC(O)c1ccc([C@@H]2[C@@H](C/C=C\CCCC(=O)O)[C@H](Cl)C[C@@H]2Cl)cc1 (some centres unmarked) [compound 1] ?
[reply] 2360

[ask] Entry CCCCCC(O)c1ccc([C@@H]2[C@@H](C/C=C\CCCC(=O)O)[C@H](Cl)C[C@H]2Cl)cc1 (some centres unmarked) [Entry 2] has what Ki?
[reply] 1400
